system_name: single-chain tethered dimer of HIV protease (Human immunodeficiency virus 1)
procedure_details: biochemical
Assay type: biochemical
Design: fused on or other part: A second copy of the same protease unit is joined to the first by a short peptide tether, giving one polypeptide
run_conditions: read-out: HPLC Ki; Table 1d, lower part
pKi: −log10 of the molar value.
observation_type: pKi

# compound, observation_type, readout_value
measured = [
    ("O=C1N(CC2CC2)C(Cc2ccccc2)C(OCc2ccccc2)C(OCc2ccccc2)C(Cc2ccccc2)N1CC1CC1 (stereo not shown)", "pKi", "< 6.00"),
    ("COC1C(OC)C(Cc2ccccc2)N(CC2CC2)C(=O)N(CC2CC2)C1Cc1ccccc1 (stereo not shown)", "pKi", "< 6.00"),
    ("O=C1N(CC2CC2)C(Cc2ccccc2)C(=NO)C(O)C(Cc2ccccc2)N1CC1CC1 (stereo not shown)", "pKi", "< 6.00"),
    ("C=CCOC1C(O)C(Cc2ccccc2)N(CC2CC2)C(=O)N(CC2CC2)C1Cc1ccccc1 (stereo not shown)", "pKi", "6.00 to 8.00"),
    ("O=C1N(Cc2ccccc2)[C@H](Cc2ccccc2)C[C@@H](O)[C@@H](Cc2ccccc2)N1Cc1ccccc1", "pKi", "> 8.00"),
    ("COC1C(O)C(Cc2ccccc2)N(CC2CC2)C(=O)N(CC2CC2)C1Cc1ccccc1 (stereo not shown)", "pKi", "6.00 to 8.00"),
    ("O=C1N(CC2CC2)C(Cc2ccccc2)c2ncoc2C(Cc2ccccc2)N1CC1CC1 (stereo not shown)", "pKi", "6.00 to 8.00"),
    ("CON=C1C(O)C(Cc2ccccc2)N(CC2CC2)C(=O)N(CC2CC2)C1Cc1ccccc1 (stereo not shown)", "pKi", "6.00 to 8.00"),
    ("COCCOCO[C@@H]1C(=O)[C@@H](Cc2ccccc2)N(CC2CC2)C(=O)N(CC2CC2)[C@@H]1Cc1ccccc1", "pKi", "< 6.00"),
    ("O=C1N(CC2CC2)C(Cc2ccccc2)C(O)C(OCc2ccccc2)C(Cc2ccccc2)N1CC1CC1 (stereo not shown)", "pKi", "< 6.00"),
]

The reported measurements were obtained from patent USRE37781E1.
